target-or-system: human EHMT2 913-1193 (Homo sapiens)
Construct: recombinant purified human EHMT2 913-1193, Viva; purchased Viva
experiment-notes: biochemical
experimental-parameters: recombinant human EHMT2 913-1193, histone H3 1-15 peptide, 3H-SAM, balanced conditions; read-out: EHMT2 PEP (IC50 μM)
Excerpt: Biotinylated histone peptides were synthesized by Biopeptide and HPLC-purified to >95% purity. […] 384-well Flashplates and 96-well filter binding plates were read on a TopCount microplate reader (PerkinElmer). […] General Procedure for EHMT2 Enzyme Assay on Histone Peptide Substrate. […] 384-well Flashplates were read on a TopCount microplate reader (PerkinElmer).
property-name: IC50

{"compound-string": "COc1cc2c(cc1OCCCN1CCOCC1)N=C(N)C21CCC1", "property-name": "IC50", "measured": "0.1 to 1 µM"}
{"compound-string": "COc1cc2c(cc1OCCCN1CC[C@@H](O)C1)N=C(N)C21CCC1", "property-name": "IC50", "measured": "< 0.1 µM"}
{"compound-string": "CNc1nc2cc(OCCCN3CCCC3)c(OC)cc2n1C", "property-name": "IC50", "measured": "< 0.1 µM"}
{"compound-string": "COc1cc2c(cc1OCCCN1CCCC1)nc(C)n2C1CCCC1", "property-name": "IC50", "measured": "0.1 to 1 µM"}
{"compound-string": "COc1cc2c(cc1OCCCN1CCCC1)ncn2C(C)C", "property-name": "IC50", "measured": "1 to 10 µM"}
{"compound-string": "COc1cc2c(cc1OCCCN1CCCC1)nc(N)n2C1CCCC1", "property-name": "IC50", "measured": "< 0.1 µM"}
{"compound-string": "COc1cc2c(cc1CNCCN1CCCC1)N=C(NC1CCOCC1)C21CCC1", "property-name": "IC50", "measured": "1 to 10 µM"}
{"compound-string": "COc1cc2c(cc1OCCCN(C)C)N=C(N)C21CCC1", "property-name": "IC50", "measured": "< 0.1 µM"}
{"compound-string": "CNCCCOc1cc2c(cc1OC)C1(CCC1)C(N)=N2", "property-name": "IC50", "measured": "1 to 10 µM"}
{"compound-string": "COc1cc2c(cc1OC[C@H](O)CN1CCCC1)nc(NC1CCCC1)n2C", "property-name": "IC50", "measured": "0.1 to 1 µM"}
{"compound-string": "COc1cc2c(cc1OCCCN1CCCC1)nc(C)n2C", "property-name": "IC50", "measured": "1 to 10 µM"}

---

target-or-system: UniProt:Q9H9B1
Sequence (Q9H9B1 1-1298): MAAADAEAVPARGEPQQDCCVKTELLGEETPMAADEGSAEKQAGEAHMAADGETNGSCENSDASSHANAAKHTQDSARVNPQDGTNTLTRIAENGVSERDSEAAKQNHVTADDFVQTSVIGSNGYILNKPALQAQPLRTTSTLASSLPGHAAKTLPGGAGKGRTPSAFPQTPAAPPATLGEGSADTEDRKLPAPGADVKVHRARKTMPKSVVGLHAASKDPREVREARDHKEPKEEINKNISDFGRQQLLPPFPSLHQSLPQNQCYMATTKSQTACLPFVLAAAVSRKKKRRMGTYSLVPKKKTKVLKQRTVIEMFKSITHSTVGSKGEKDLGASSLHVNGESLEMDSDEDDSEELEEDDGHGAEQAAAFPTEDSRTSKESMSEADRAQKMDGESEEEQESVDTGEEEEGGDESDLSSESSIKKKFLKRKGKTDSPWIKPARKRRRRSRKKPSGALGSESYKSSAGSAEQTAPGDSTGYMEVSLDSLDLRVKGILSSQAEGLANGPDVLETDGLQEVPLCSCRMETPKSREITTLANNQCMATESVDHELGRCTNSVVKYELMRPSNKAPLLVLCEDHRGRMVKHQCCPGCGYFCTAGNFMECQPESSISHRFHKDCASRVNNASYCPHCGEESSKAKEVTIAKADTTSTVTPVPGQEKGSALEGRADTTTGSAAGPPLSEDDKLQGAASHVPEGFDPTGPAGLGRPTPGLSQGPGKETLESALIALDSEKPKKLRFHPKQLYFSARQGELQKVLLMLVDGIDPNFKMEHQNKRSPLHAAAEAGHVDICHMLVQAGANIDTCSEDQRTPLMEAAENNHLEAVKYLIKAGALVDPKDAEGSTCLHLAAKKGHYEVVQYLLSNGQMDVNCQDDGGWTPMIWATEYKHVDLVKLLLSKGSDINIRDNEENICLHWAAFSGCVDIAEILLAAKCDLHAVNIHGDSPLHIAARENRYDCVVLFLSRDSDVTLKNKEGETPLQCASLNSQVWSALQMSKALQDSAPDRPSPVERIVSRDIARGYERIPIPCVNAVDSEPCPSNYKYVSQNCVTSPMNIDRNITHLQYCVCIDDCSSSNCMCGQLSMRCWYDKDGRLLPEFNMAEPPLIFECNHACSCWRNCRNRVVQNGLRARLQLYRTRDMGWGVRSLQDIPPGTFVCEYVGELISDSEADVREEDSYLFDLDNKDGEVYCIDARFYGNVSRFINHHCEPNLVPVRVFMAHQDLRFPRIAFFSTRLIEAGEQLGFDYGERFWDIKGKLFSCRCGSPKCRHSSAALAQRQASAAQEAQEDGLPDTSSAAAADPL
experiment-notes: EHMT1 PEP
Assay type: biochemical
IC50 values, listed per item
property-name: IC50

{"compound-string": "NC1=Nc2cc(OCCCN3CCCC3)c(-c3ccccc3)cc2C12CCC2", "measured": "1 to 10 µM"}
{"compound-string": "NC1=Nc2cc(OCCCN3CCCC3)c(OCc3ccccc3)cc2C12CCC2", "measured": "1 to 10 µM"}
{"compound-string": "COc1cc2c(cc1OC[C@H](O)CN1CCCC1)nc(NCC1CC1)n2C", "measured": "< 0.1 µM"}
{"compound-string": "COc1cc2c(cc1OCCCN1CCCC1)C1(CCC1)C(N)=N2", "measured": "1 to 10 µM"}

---

target-or-system: EHMT2 (Homo sapiens)
Construct: endogenous in cells; host or cells: MDA-MB-231 (ATCC)
Sequence (Q96KQ7 whole entry): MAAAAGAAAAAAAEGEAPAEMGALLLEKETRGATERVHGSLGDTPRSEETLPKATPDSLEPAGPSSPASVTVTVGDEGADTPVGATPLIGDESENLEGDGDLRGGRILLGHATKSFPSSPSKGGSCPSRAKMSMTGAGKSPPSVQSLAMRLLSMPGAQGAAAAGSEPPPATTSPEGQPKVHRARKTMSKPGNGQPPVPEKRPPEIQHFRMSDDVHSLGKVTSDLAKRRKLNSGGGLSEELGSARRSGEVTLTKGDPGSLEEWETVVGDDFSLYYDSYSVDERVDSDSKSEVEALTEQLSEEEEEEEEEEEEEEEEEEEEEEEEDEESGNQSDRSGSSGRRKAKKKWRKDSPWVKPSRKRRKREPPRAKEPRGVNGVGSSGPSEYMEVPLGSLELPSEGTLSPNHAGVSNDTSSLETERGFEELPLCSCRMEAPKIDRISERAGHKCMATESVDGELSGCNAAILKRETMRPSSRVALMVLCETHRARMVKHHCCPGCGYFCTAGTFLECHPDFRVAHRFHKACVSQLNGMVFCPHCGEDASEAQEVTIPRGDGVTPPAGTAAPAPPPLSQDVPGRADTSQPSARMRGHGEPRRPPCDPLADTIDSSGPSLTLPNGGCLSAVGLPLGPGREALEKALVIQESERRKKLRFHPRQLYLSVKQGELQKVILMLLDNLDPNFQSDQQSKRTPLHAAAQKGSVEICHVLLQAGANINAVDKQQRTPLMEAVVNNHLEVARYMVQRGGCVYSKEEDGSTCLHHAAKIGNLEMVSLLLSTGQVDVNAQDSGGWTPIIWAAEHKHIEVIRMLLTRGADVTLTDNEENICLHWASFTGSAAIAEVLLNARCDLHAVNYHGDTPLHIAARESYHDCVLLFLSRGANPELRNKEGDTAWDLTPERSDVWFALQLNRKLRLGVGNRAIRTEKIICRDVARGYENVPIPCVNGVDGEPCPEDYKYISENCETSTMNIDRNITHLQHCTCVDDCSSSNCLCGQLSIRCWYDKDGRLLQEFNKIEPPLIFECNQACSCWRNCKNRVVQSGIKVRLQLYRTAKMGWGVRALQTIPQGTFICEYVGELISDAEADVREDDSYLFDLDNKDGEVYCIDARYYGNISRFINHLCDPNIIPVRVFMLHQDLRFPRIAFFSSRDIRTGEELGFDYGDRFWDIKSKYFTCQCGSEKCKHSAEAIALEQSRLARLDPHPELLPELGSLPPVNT
experiment-notes: MDA-MB-231 H3K9me2 in-cell Western assay (EHMT2 ICW)
Format: cell-based
experimental-parameters: MDA-MB-231 cells, H3K9me2 in-cell Western; read-out: EHMT2 ICW (IC50 μM)
property-name: IC50

{"compound": "CNC1=Nc2cc(CNCCN3CCCC3)c(OC)cc2C12CCC2 [Compound 70]", "property-name": "IC50", "measured": "0.1 to 1 µM"}
{"compound": "COCCNC1=Nc2cc(C#CCN3CCCCC3)c(OC)cc2C12CCC2 [Compound 99]", "property-name": "IC50", "measured": "0.1 to 1 µM"}
{"compound": "CCNc1nc2cc(OCCCN3CCCC3)c(OC)cc2n1C [Compound 27]", "property-name": "IC50", "measured": "0.1 to 1 µM"}
{"compound": "COc1cc2c(cc1OCCCN1CCCC1)N=C(N)C21CCOCC1 [Compound 5]", "property-name": "IC50", "measured": "0.1 to 1 µM"}
{"compound": "COc1cc2c(cc1OC[C@H](O)CN1CCCC1)nc(NCC1CC1)n2C [Compound 34]", "property-name": "IC50", "measured": "0.1 to 1 µM"}
{"compound": "COc1cc2c(cc1OC[C@H](O)CN1CCCC1)nc(NC(C)C)n2C [Compound 32]", "property-name": "IC50", "measured": "1 to 10 µM"}

---

target-or-system: human EHMT2 913-1193 (Homo sapiens, UniProt Q96KQ7)
Construct: recombinant purified human EHMT2 913-1193, Viva; purchased Viva
Sequence (Q96KQ7 913-1193): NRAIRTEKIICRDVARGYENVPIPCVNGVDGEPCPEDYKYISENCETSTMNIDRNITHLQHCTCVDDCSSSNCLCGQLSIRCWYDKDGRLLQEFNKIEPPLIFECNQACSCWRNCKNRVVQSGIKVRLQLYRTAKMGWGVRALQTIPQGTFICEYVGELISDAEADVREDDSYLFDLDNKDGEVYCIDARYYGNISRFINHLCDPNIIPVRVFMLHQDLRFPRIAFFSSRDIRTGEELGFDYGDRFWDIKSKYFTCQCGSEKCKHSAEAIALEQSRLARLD
experiment-notes: biochemical
experimental-parameters: recombinant human EHMT2 913-1193, histone H3 1-15 peptide, 3H-SAM, balanced conditions; read-out: EHMT2 PEP (IC50 μM)
IC50 values, listed per item
property-name: IC50

{"molecule": "COc1cc2c(cc1OCCCN)N=C(N)C2(C)C [Compound 47]", "property-name": "IC50", "measured": "1 to 10 µM"}
{"molecule": "CNc1nc2cc(CNCCN3CCCC3)c(OC)cc2n1C(C)C [Compound 40]", "property-name": "IC50", "measured": "0.1 to 1 µM"}
{"molecule": "CNc1nc2cc(CNCCN3CCCC3)c(Cl)cc2n1C(C)C [Compound 138]", "property-name": "IC50", "measured": "1 to 10 µM"}
{"molecule": "CNC1=Nc2cc(C#CCN3CCCCC3)c(OC)cc2C12CCC2 [Compound 75]", "property-name": "IC50", "measured": "< 0.1 µM"}
{"molecule": "CNC1=Nc2cc(C#C[C@@H](C)N3CCCC3)c(OC)cc2C12CCC2 [Compound 86]", "property-name": "IC50", "measured": "0.1 to 1 µM"}
{"molecule": "COc1cc2c(cc1OCCCN1CCCC1)nc(C1CCCC1)n2C [Compound 22]", "property-name": "IC50", "measured": "1 to 10 µM"}
{"molecule": "CCN1CC[C@@H](COc2cc3nc(N)n(C4CCCC4)c3cc2OC)C1 [Compound 9]", "property-name": "IC50", "measured": "< 0.1 µM"}
{"molecule": "CC(C)Oc1cc2c(cc1OCCCN1CCCC1)N=C(N)C21CCC1 [Compound 68]", "property-name": "IC50", "measured": "1 to 10 µM"}
{"molecule": "COc1cc2c(cc1OCCCN1CCCC1)nc(NC1CCOCC1)n2C [Compound 29]", "property-name": "IC50", "measured": "1 to 10 µM"}
{"molecule": "CNC1=Nc2cc(C#CC(C)N3CCCC3)c(OC)cc2C12CCC2 (stereo not shown) [Compound 84]", "property-name": "IC50", "measured": "< 0.1 µM"}
{"molecule": "CNCCCOc1cc2c(cc1OC)C(C)(C)C(N)=N2 [Compound 48]", "property-name": "IC50", "measured": "0.1 to 1 µM"}
{"molecule": "CNc1nc2cc(OC[C@H](O)CN3CCC3)c(OC)cc2n1C [Compound 25]", "property-name": "IC50", "measured": "0.1 to 1 µM"}
{"molecule": "COc1cc2c(cc1OCCCN1CCCC1)nc(NCC(F)(F)F)n2C [Compound 12]", "property-name": "IC50", "measured": "1 to 10 µM"}
{"molecule": "CNc1nc2cc(CNCCN3CCCC3)c(OC)cc2n1C [Compound 37]", "property-name": "IC50", "measured": "< 0.1 µM"}
{"molecule": "CNC1=Nc2cc(C#C[C@H](C)N3CCCCC3)c(OC)cc2C12CCC2 [Compound 93]", "property-name": "IC50", "measured": "< 0.1 µM"}
{"molecule": "CNC1=Nc2cc(C#CCN3CCC(O)C3)c(OC)cc2C12CCC2 (stereo not shown) [Compound 95]", "property-name": "IC50", "measured": "0.1 to 1 µM"}
{"molecule": "COc1cc2c(cc1OCCCN1CCCC1)nc(NC(C)C)n2C [Compound 28]", "property-name": "IC50", "measured": "0.1 to 1 µM"}
{"molecule": "CNC1=Nc2cc(C#CC(C)N3CC4CC4C3)c(OC)cc2C12CCC2 (stereo not shown) [Compound 89]", "property-name": "IC50", "measured": "< 0.1 µM"}
{"molecule": "COc1cc2c(cc1OCCCN1CCCC1)nc(N)n2CC1CCOCC1 [Compound 18]", "property-name": "IC50", "measured": "0.1 to 1 µM"}
{"molecule": "CCCNC1=Nc2cc(CNCCN3CCCC3)c(OC)cc2C12CCC2 [Compound 73]", "property-name": "IC50", "measured": "< 0.1 µM"}
{"molecule": "COc1cc2c(cc1OCCCN(C)C)N=C(N)C2(C)C [Compound 46]", "property-name": "IC50", "measured": "0.1 to 1 µM"}
{"molecule": "COc1cc2nc[nH]c2cc1OCCCN1CCCC1 [Compound 51]", "property-name": "IC50", "measured": "1 to 10 µM"}
{"molecule": "COc1cc2c(cc1OC[C@H](O)CN1CCCC1)nc(NC1CCOCC1)n2C [Compound 35]", "property-name": "IC50", "measured": "1 to 10 µM"}
{"molecule": "CNc1nc2cc(OCCCN3CCCC3)c(OC)cc2n1C1CCOCC1 [Compound 13]", "property-name": "IC50", "measured": "< 0.1 µM"}
{"molecule": "CCNC1=Nc2cc(CNCCN3CCCC3)c(OC)cc2C12CCC2 [Compound 71]", "property-name": "IC50", "measured": "< 0.1 µM"}
{"molecule": "COc1cc2c(cc1OCCCN1CCCC1)nc(N)n2C [Compound 2]", "property-name": "IC50", "measured": "< 0.1 µM"}
{"molecule": "CCOc1cc2c(cc1OCCCN1CCCC1)N=C(N)C21CCC1 [Compound 59]", "property-name": "IC50", "measured": "< 0.1 µM"}
{"molecule": "CNC1=Nc2cc(C#C[C@H](C)N3CCCC3)c(OC)cc2C12CCC2 [Compound 85]", "property-name": "IC50", "measured": "< 0.1 µM"}
{"molecule": "COc1cc2c(cc1OCCCN1CCCC1)nc(NC1CCCC1)n2C [Compound 30]", "property-name": "IC50", "measured": "0.1 to 1 µM"}
{"molecule": "CNC1=Nc2cc(CNCCN3CCCC3)c(OC)cc2C12CCC2 [Compound 70]", "property-name": "IC50", "measured": "< 0.1 µM"}
{"molecule": "CNC1=Nc2cc(C#C[C@@H](C)N3CCCCC3)c(OC)cc2C12CCC2 [Compound 94]", "property-name": "IC50", "measured": "0.1 to 1 µM"}
{"molecule": "NC1=Nc2cc(OCCCN3CCCC3)c(-c3ccncc3)cc2C12CCC2 [Compound 136]", "property-name": "IC50", "measured": "> 10 µM"}
{"molecule": "COc1cc2c(cc1OCCCN1CCCC1)C1(CCC1)C(N)=N2 [Compound 66]", "property-name": "IC50", "measured": "1 to 10 µM"}
{"molecule": "CNC1=Nc2cc(C#CC(C)N3CCCCC3)c(OC)cc2C12CCC2 (stereo not shown) [Compound 92]", "property-name": "IC50", "measured": "< 0.1 µM"}
{"molecule": "COc1cc2c(cc1OCCCN1CCC1)N=C(N)C21CCC1 [Compound 43]", "property-name": "IC50", "measured": "< 0.1 µM"}
{"molecule": "CCN1CC(COc2cc3nc(N)n(C4CCCC4)c3cc2OC)C1 [Compound 10]", "property-name": "IC50", "measured": "0.1 to 1 µM"}
{"molecule": "CNc1nc2cc(OC[C@H](O)CN3CCCC3)c(OC)cc2n1C [Compound 26]", "property-name": "IC50", "measured": "0.1 to 1 µM"}
